B1: Twister Ribozyme (parent)
chain: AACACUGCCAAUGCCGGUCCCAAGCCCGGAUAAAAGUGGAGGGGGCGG

variants of: B1; test: self-cleavage, relative activity (ratio to wild type); higher = more cleavage; co-transcriptional
measuredAttribute: self-cleavage
One number for each entry.

Below: 5 variants and their reported self-cleavage.
AACACUGCCAAUGCCGGUCCCAAGCCCGGAUAAAUGUGGAUGGGGCGG [A35U G41U] : 0.693
AACACUGCCAAUGCCAGUCCCAAGCCCGGAUAGAAGUGGAGGGGGCGG [G16A A33G] : 0.892
AACACUGCCAAUGCCGGCCCCAAGCUCGGAUAAAAGUGGAGGGGGCGG [U18C C26U] : 0.0772
AACACUGCCAAUCCCGGUUCCAAGCCCGGAUAAAAGUGGAGGGGGCGG [G13C C19U] : 0.0706
AACACUGCCACUGCCGGUCCCAAGCCCGGAUAAAAGUUGAGGGGGCGG [A11C G38U] : 1.03

Items follow; give self-cleavage for each.
1. AACACUGCCAAUGCCGGUCCCAAGCCAGGUUAAAAGUGGAGGGGGCGG [C27A A30U]
2. AACACUGCCAAUGCCGGUCCCAAGCCCGGAUAAGAGUGGAGGGGUCGG [A34G G45U]

[out]
1. 0.707
2. 0.553

Items follow; give self-cleavage for each.
1. AACACUGCCAAUGCCGGUCCCAAGCCCGCAUAAAAGUGAAGGGGGCGG [G29C G39A]
2. AACACUGCCAAUGCCGGUCCCAAGCCGGGAUAAAAGUGGAGGAGGCGG [C27G G43A]
3. AACACUGCCAAUGCCGGUCCCAAGCCCGGAUAAAAGUAGAGGGUGCGG [G38A G44U]

[out]
1. 0.143
2. 0.0971
3. 0.846

Items follow; give self-cleavage for each.
1. AACACUGUCAAUGCCGGUCCCAAUCCCGGAUAAAAGUGGAGGGGGCGG [C8U G24U]
2. AACACUGCCAAUGCCGGUCCCGAGCCCGGAUAAAAGUGGAGGUGGCGG [A22G G43U]
3. AACACUGCCAAUGCCGCUCCCAAGCCCGGAUAAAAGUGGAGGGGGCGG [G17C]

[out]
1: 0.177; 2: 0.101; 3: 0.153

Items follow; give self-cleavage for each.
1. AACACUACCAAUGCCGGUCCCAAGCCCGGAUAAAAGUGGAAGGGGCGG [G7A G41A]
2. AACACUGCCAAUGCCGGUCCCCAGCCCGGAUAAAAGUGAAGGGGGCGG [A22C G39A]
3. AACACUGCCAAUGCCGGUGCCAGGCCCGGAUAAAAGUGGAGGGGGCGG [C19G A23G]

[out]
1. 0.122
2. 0.238
3. 0.0717
